# Test system: IC-GPCR2 (Homo sapiens, UniProt Q8TDV5, S309L)
# Construct: expressed in transfected cells
# Sequence (Q8TDV5 1-335 S309L): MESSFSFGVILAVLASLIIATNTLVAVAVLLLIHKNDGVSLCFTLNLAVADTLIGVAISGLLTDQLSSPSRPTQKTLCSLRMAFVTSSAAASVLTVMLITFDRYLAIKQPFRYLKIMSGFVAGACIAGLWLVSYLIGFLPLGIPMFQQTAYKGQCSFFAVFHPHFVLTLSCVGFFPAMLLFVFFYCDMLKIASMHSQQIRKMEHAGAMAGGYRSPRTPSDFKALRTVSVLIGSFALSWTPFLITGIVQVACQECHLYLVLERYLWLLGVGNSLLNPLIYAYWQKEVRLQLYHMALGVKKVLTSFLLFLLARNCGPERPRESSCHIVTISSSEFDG
# Assay remarks: Stimulation of cAMP in CHO cells stably expressing IC-GPCR2 (HTRF cAMP assay)
# Format: cell-based
# Setup conditions: 0.5 h, 30 minutes, IC-GPCR2 stably expressing CHO cells, read-out: Activity at 10 uM (% change in FRET signal from DMSO control)
Result type: activation at 10 µM (%)
Number in %, nothing else.

Problem: Recorded activation at 10 µM for CC(C)OC(=O)N1CCC(c2nc(COc3ccc(S(C)(=O)=O)cc3)cs2)CC1 [Example 22] , please?
Solution: 62

Problem: Recorded activation at 10 µM for CCc1cnc(N2CCC(c3nc(COc4ccc(-n5cnnn5)cc4C(F)(F)F)cs3)CC2)nc1 [Example 119] , please?
Solution: 53

Problem: Recorded activation at 10 µM for CCc1cnc(N2CCC(c3nc(COc4ccc(S(N)(=O)=O)cc4)cs3)CC2)nc1 [Example 9] , please?
Solution: 54

Problem: Recorded activation at 10 µM for CC(C)(C)OC(=O)N1CCC(c2nc(COc3ccc(S(C)(=O)=O)cc3)cs2)CC1 [Example 1] , please?
Solution: 69

Problem: Recorded activation at 10 µM for CC(C)(C)OC(=O)Nc1ccc(OCc2csc(C3CCN(C(=O)OC(C)(C)C)CC3)n2)cc1 [Example 130] , please?
Solution: 53

Problem: Recorded activation at 10 µM for CCCCCOC(=O)N1CCC(c2nc(COc3ccc(-n4cnnn4)cc3)cs2)CC1 [Example 31] , please?
Solution: 88

###

# Test system: IC-GPCR2 (Homo sapiens, UniProt Q8TDV5, S309L)
# Construct: expressed in transfected cells
# Assay remarks: Stimulation of cAMP in CHO cells stably expressing IC-GPCR2 (HTRF cAMP assay)
# Assay type: cell-based
# Setup conditions: 0.5 h, 30 minutes, IC-GPCR2 stably expressing CHO cells, read-out: Activity at 10 uM (% change in FRET signal from DMSO control)
Result type: activation at 10 µM (%)
Number in %, nothing else.

Problem: // map CC(C)(C)OC(=O)N1CCC(c2noc(COCc3ccccc3)n2)CC1 to recorded activation at 10 µM (system: IC-GPCR2 (Homo sapiens, UniProt Q8TDV5, S309L))
Solution: 27

Problem: // map CN1CCN(C(=O)N2CCC(c3nc(COc4ccc(-n5cnnn5)cc4)cs3)CC2)CC1 to recorded activation at 10 µM (system: IC-GPCR2 (Homo sapiens, UniProt Q8TDV5, S309L))
Solution: 53

Problem: // map COC(=O)c1cc(Cl)cnc1N1CCC(c2nc(COc3ccc(-n4cnnn4)cc3)cs2)CC1 to recorded activation at 10 µM (system: IC-GPCR2 (Homo sapiens, UniProt Q8TDV5, S309L))
Solution: 15

Problem: // map Brc1cnc(N2CCC(c3nc(COc4ccc(-n5cnnn5)cc4)cs3)CC2)nc1 to recorded activation at 10 µM (system: IC-GPCR2 (Homo sapiens, UniProt Q8TDV5, S309L))
Solution: 58

Problem: // map CC(C)(C)OC(=O)N1CCC(c2nc(COc3ccc(SC(F)(F)F)cc3)cs2)CC1 to recorded activation at 10 µM (system: IC-GPCR2 (Homo sapiens, UniProt Q8TDV5, S309L))
Solution: 68

Problem: // map Fc1ccnc(N2CCC(c3nc(COc4ccc(-n5cnnn5)cc4)cs3)CC2)n1 to recorded activation at 10 µM (system: IC-GPCR2 (Homo sapiens, UniProt Q8TDV5, S309L))
Solution: 39

Problem: // map CC(C)(C)OC(=O)N1CCC(c2nc(COc3ccc(S(=O)(=O)C(F)(F)F)cc3)cs2)CC1 to recorded activation at 10 µM (system: IC-GPCR2 (Homo sapiens, UniProt Q8TDV5, S309L))
Solution: 51

Problem: // map CC(C)(C)OC(=O)N1CCC(c2nc(COc3ccc(-n4cnnn4)cc3)cs2)C1 (centres unmarked) to recorded activation at 10 µM (system: IC-GPCR2 (Homo sapiens, UniProt Q8TDV5, S309L))
Solution: 49

Problem: // map C[C@H]1CN(c2ncc(C(F)(F)F)cn2)CC[C@H]1c1nc(COc2ccc(-n3cnnn3)cc2F)cs1 (stereo in doubt) to recorded activation at 10 µM (system: IC-GPCR2 (Homo sapiens, UniProt Q8TDV5, S309L))
Solution: 83

Problem: // map CC(C)(C)OC(=O)N1CCC(c2nc(COc3ccc(Br)cc3)cs2)CC1 to recorded activation at 10 µM (system: IC-GPCR2 (Homo sapiens, UniProt Q8TDV5, S309L))
Solution: 62

Problem: // map CCc1cnc(N2CCC(c3nc(COCc4ccc(S(C)(=O)=O)cc4)cs3)CC2)nc1 to recorded activation at 10 µM (system: IC-GPCR2 (Homo sapiens, UniProt Q8TDV5, S309L))
Solution: 76

Problem: // map CC(C)(C)OC(=O)N1CCC(c2nc(CNc3ccc(-n4cnnn4)cc3)cs2)CC1 to recorded activation at 10 µM (system: IC-GPCR2 (Homo sapiens, UniProt Q8TDV5, S309L))
Solution: 68

Problem: // map CC(C)(C)OC(=O)N1CCC(c2nc(COc3c(F)cc(S(C)(=O)=O)cc3F)cs2)CC1 to recorded activation at 10 µM (system: IC-GPCR2 (Homo sapiens, UniProt Q8TDV5, S309L))
Solution: 70

Problem: // map Clc1cnc(N2CCC(c3nc(COc4ccc(-n5cnnn5)cc4)cs3)CC2)nc1 to recorded activation at 10 µM (system: IC-GPCR2 (Homo sapiens, UniProt Q8TDV5, S309L))
Solution: 60

Origin of values: patent US9925189B2
